// data source = BigSolDB 2.1

# MEASUREMENT_CONDITIONS: in ethanol, 303.15 K

>  <MOLECULE>
CC(C)(C)C(=O)C(Oc1ccc(Cl)cc1)n1ccnc1 (stereo unspecified)

>  <solubility (mole fraction)>
0.185

$$$$

----------
# MEASUREMENT_CONDITIONS: in ethanol, 298.15 K

>  <MOLECULE>
CC(C)(C)C(=O)C(Oc1ccc(Cl)cc1)n1ccnc1 (stereo unspecified)

>  <solubility (mole fraction)>
0.157

$$$$

----------
# MEASUREMENT_CONDITIONS: in methyl acetate, 303.15 K

>  <COMPOUND>
CC(C)(C)C(=O)C(Oc1ccc(Cl)cc1)n1ccnc1 (stereo unspecified)

>  <solubility (mole fraction)>
0.156

$$$$
